// data source = patent CN108290841A

Biological target: RXRα protein (ligand binding domain (LBD)) [RXRα蛋白质(配体结合域(LBD))] (Homo sapiens, UniProt P19793)
Sequence (P19793 227-458 limits assumed): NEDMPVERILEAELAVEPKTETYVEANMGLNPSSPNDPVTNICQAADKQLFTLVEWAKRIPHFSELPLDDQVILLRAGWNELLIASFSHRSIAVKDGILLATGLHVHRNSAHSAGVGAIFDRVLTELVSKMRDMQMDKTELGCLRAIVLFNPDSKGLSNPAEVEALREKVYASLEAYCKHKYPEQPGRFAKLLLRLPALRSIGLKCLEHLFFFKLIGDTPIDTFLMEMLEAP
TEST READOUT: Ki

INSERT INTO assay_data (smiles_str, result) VALUES
  ('CCCCCCOc1cc2c(cc1N(C)c1ncc(C(=O)O)cn1)C(C)(C)CCC2(C)C', '108 nM'),
  ('Cc1cc2c(cc1-n1c(C(F)(F)F)nc3cc(C(=O)O)ccc31)C(C)(C)CCC2(C)C', '73 nM');
